Biological target: MDM2 (Homo sapiens, UniProt Q00987)
Sequence (Q00987 whole entry): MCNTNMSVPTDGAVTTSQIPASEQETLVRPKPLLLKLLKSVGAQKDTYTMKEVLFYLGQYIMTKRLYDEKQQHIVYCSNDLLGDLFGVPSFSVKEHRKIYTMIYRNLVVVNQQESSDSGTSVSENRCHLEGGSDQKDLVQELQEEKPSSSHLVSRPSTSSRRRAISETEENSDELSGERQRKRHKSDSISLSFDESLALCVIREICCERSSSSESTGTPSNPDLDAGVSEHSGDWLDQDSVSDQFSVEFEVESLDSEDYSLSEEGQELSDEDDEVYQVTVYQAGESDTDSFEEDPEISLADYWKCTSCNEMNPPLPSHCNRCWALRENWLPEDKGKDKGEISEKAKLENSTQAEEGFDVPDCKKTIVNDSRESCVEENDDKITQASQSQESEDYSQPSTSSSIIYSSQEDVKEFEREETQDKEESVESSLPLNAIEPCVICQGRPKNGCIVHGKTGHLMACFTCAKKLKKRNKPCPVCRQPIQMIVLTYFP
Assay: MDM2 binding screen: displacement of fluorescent p53 peptide probe FP53 (fluorescence polarization)
Settings: Acid 91; replicate; crude macrocycle reactions
outcomeMeasure: fraction fluorescent probe displaced, Replicate

Examples with their reported fraction fluorescent probe displaced, Replicate follow.
>>> quantitativeresult("O=C1CCNC(=O)C2(CCN(C(=O)/C=C/c3ccccc3)CC2)NC(=O)CCSSCCNC(=O)[C@H](Cc2c[nH]c3ccccc23)N1")
0.09
>>> quantitativeresult("O=C(/C=C/c1ccccc1)NC[C@@H]1NC(=O)c2cccc(c2)CNC(=O)CCSSCCNC(=O)[C@H](Cc2ccccc2)NC1=O")
0.0168
>>> quantitativeresult("O=C1NCCSSCCC(=O)N2CCN(C(=O)C=Cc3ccccc3)CC2C(=O)NC(Cc2ccccc2)C(=O)NCc2cccc1c2 (centres unmarked)")
0.04

A: O=C(/C=C/c1ccccc1)NC[C@@H]1NC(=O)CCNC(=O)[C@H](Cc2ccccc2)NC(=O)CCSSCCNC1=O
B: O=C(C=Cc1ccccc1)NC1CC2C(=O)N3CCCC3C(=O)NCCSSCCC(=O)NC(Cc3ccccc3)C(=O)N2C1 (centres unmarked)
C: O=C(/C=C/c1ccccc1)NC[C@@H]1NC(=O)CCSSCCNC(=O)CCNC(=O)[C@H](Cc2ccccc2)NC1=O
Data request: Give the ascending ranking of the items by reported fraction fluorescent probe displaced, Replicate. Present the labels in the sequence the task asks for.
Data returned: B, C, A
(B: -0.11, C: -0.0333, A: 0.04)

I: O=C(/C=C/c1ccccc1)NC[C@@H]1NC(=O)[C@H]2CCCN(C2)C(=O)[C@H](Cc2ccccc2)NC(=O)CCSSCCNC1=O
II: O=C(/C=C/c1ccccc1)NC[C@@H]1NC(=O)CCSSCCNC(=O)[C@H](Cc2ccccc2)NC(=O)CCNC1=O
Data request: Looking at I and II , which one comes out lower in fraction fluorescent probe displaced, Replicate terms? Could you answer with the label of the item you picked?
Data returned: II
(II: 0.04, I: 0.17)

====

Target: MDM2 (Homo sapiens, UniProt Q00987)
Assay: MDM2 binding screen of Libraries 3 and 4: displacement of fluorescent probe F-M8 at 750 nM macrocycle
Settings: Panel b, Library 3: 63 scaffolds combinatorially acylated with 15 carboxylic acids at 30 picomole scale; displacement of fluorescent peptide probe; macrocycle 750 nM
outcomeMeasure: fraction of fluorescent probe displaced

>>> quantitativeresult("O=C1CCSSCCNC(=O)[C@H](Cc2c[nH]c3cc(Cl)ccc23)NC(=O)CN(CCNC(=O)c2ccc(Cl)cc2)C(=O)C2(CC2)CN1")
-0.025

P: O=C1CCSSCCNC(=O)[C@H](Cc2cccc3ccccc23)NC(=O)[C@H](CNC(=O)C2COc3ccccc3O2)NC(=O)C2(CC2)CN1 (stereo partly drawn)
Q: O=C(CCS(=O)(=O)c1ccccc1)NCCN1CC(=O)N[C@@H](Cc2cccc3ccccc23)C(=O)NCCSSCCC(=O)N2CCC[C@@H](C2)C1=O
Data request: Short answer wanted: higher fraction of fluorescent probe displaced, P or Q ? Could you answer with the label of the item you picked?
Data returned: Q

====

Target: MDM2 (Homo sapiens)
Test: MDM2 binding screen: displacement of fluorescent p53 peptide probe FP53 (fluorescence polarization)
Settings: Acid 14; replicate; crude macrocycle reactions
Numbered stars: 1 amine (or outer) side, 2 acyl side, 3 side chain; on linkers, the order of the positions; unused ones are H or OH. Bridge positions count the residues as written; N and C are the ends. Square brackets hold non-standard residues; d marks the D form. Peptide text beside a SMILES is read from it. * marks the point of attachment. ξ: configuration not given here. ξPro(4-NHCO(5-Cl-2-thienyl)) = O=C(NC1CNC(C(=O)O)C1)c1ccc(Cl)s1; 2Thenoyl(5-Cl) = O=C(c1ccc(Cl)s1)*; Cysteamide = C(CS[*:3])N[*:1]; Api = NC1(C(=O)O)CCNCC1; Mpa = O=C(O)CCS
outcomeMeasure: fraction fluorescent probe displaced, Replicate

Examples with their reported fraction fluorescent probe displaced, Replicate follow.
>>> quantitativeresult("O=C(NC1CC2C(=O)NC(Cc3ccccc3)C(=O)N3CCCC3C(=O)NCCSSCCC(=O)N2C1)c1ccc(Cl)s1 (centres unmarked) [X D5 F B1 Acid 14] ([Mpa][ξPro(4-NHCO(5-Cl-2-thienyl))]FP-Cysteamide; disulfide 1-C; configuration not given here)")
0.0465
>>> quantitativeresult("O=C1CCSSCCNC(=O)[C@H](CNC(=O)c2ccc(Cl)s2)NC(=O)[C@H](Cc2ccccc2)NC(=O)CCN1 [X B2 F D3 Acid 14]")
0.12
>>> quantitativeresult("O=C1CCSSCCNC(=O)C2(CCN(C(=O)c3ccc(Cl)s3)CC2)NC(=O)c2cccc(c2)CNC(=O)[C@H](Cc2c[nH]c3ccccc23)N1 [X W B5 D6 Acid 14]")
0.17
>>> quantitativeresult("O=C1CCSSCCNC(=O)C2CC(NC(=O)c3ccc(Cl)s3)CN2C(=O)C(Cc2ccccc2)NC(=O)CCN1 (centres unmarked) [X B2 F D5 Acid 14]")
0.07
>>> quantitativeresult("O=C1CCSSCCNC(=O)C(Cc2c[nH]c3ccccc23)NC(=O)c2cccc(c2)CNC(=O)C2(CCN(C(=O)c3ccc(Cl)s3)CC2)N1 (centres unmarked) [X D6 B5 W Acid 14]")
0.25

P: O=C1CCSSCCNC(=O)C(Cc2c[nH]c3ccccc23)NC(=O)C2CC(NC(=O)c3ccc(Cl)s3)CN2C(=O)CCN1 (centres unmarked) [X B2 D5 W Acid 14]
Q: O=C1NCCSSCCC(=O)N2CCC[C@H]2C(=O)NC2(CCN(C(=O)c3ccc(Cl)s3)CC2)C(=O)N[C@H]1Cc1ccccc1 [X B1 D6 F Acid 14] ([Mpa]P[Api](2Thenoyl(5-Cl))F-Cysteamide; disulfide 1-C)
Data request: Looking at P and Q , which one comes out lower in fraction fluorescent probe displaced, Replicate terms? Could you answer with the label of the item you picked?
Data returned: Q

A: O=C1NC(Cc2ccccc2)C(=O)N2CCN(C(=O)c3ccc(Cl)s3)CC2C(=O)NCCSSCCC(=O)N2CCCC12 (centres unmarked) [X B1 F D7 Acid 14]
B: O=C1CCSSCCNC(=O)C2CC(NC(=O)c3ccc(Cl)s3)CN2C(=O)C2CCCN(C2)C(=O)C(Cc2ccccc2)N1 (centres unmarked) [X F B4 D5 Acid 14]
Data request: Short answer wanted: higher fraction fluorescent probe displaced, Replicate, A or B ? Could you answer with the label of the item you picked?
Data returned: A

====

Target: MDM2 (Homo sapiens, UniProt Q00987)
Assay: MDM2 binding screen of Libraries 3 and 4: displacement of fluorescent probe F-M8 at 750 nM macrocycle
Settings: Panel b, Library 3: 63 scaffolds combinatorially acylated with 15 carboxylic acids at 30 picomole scale; displacement of fluorescent peptide probe; macrocycle 750 nM
outcomeMeasure: fraction of fluorescent probe displaced

Examples with their reported fraction of fluorescent probe displaced follow.
>>> quantitativeresult("Cn1cc(C[C@@H]2NC(=O)[C@@H](CNC(=O)C3COc4ccccc4O3)NC(=O)C3(CC3)CNC(=O)CCSSCCNC2=O)c2ccccc21 (some centres unmarked)")
0.015
>>> quantitativeresult("O=C(CCS(=O)(=O)c1ccccc1)NC[C@@H]1NC(=O)[C@H]2CCCN(C2)C(=O)CCSSCCNC(=O)[C@H](Cc2c[nH]c3ccccc23)NC1=O")
-0.012
>>> quantitativeresult("O=C(NC[C@@H]1NC(=O)[C@H]2CCCN(C2)C(=O)CCSSCCNC(=O)[C@H](Cc2c[nH]c3cc(Cl)ccc23)NC1=O)c1cccc(Oc2ccccc2)c1")
0.075

A: O=C(/C=C/c1ccc(OCc2ccccc2)cc1)NC[C@H]1NC(=O)C2(CC2)CNC(=O)CCSSCCNC(=O)[C@H](Cc2c[nH]c3ccccc23)NC1=O
B: O=C(NC[C@@H]1NC(=O)[C@@H]2CN(CCO2)C(=O)CCSSCCNC(=O)[C@@H](Cc2c[nH]c3ccccc23)NC1=O)C1COc2ccccc2O1 (some centres unmarked)
Data request: Short answer wanted: higher fraction of fluorescent probe displaced, A or B ? Could you answer with the label of the item you picked?
Data returned: A
(A: 0.015, B: 0.008)

A: CN1C(=O)C(CNC(=O)c2cccc(Oc3ccccc3)c2)NC(=O)C2CN(CCO2)C(=O)CCSSCCNC(=O)C1Cc1c[nH]c2ccccc12 (centres unmarked)
B: O=C(/C=C/c1ccc(OCc2ccccc2)cc1)NC[C@H]1NC(=O)[C@@H]2CN(CCO2)C(=O)CCSSCCNC(=O)[C@H](Cc2cccc3ccccc23)NC1=O
C: O=C(/C=C/c1ccc(OCc2ccccc2)cc1)NC[C@@H]1NC(=O)[C@@H]2CN(CCO2)C(=O)CCSSCCNC(=O)[C@H](Cc2c[nH]c3ccccc23)NC1=O
D: O=C1CCSSCCNC(=O)[C@H](Cc2c[nH]c3cc(Cl)ccc23)NC(=O)[C@H](CNC(=O)c2ccc3ccccc3c2)NC(=O)C2(CC2)CN1
Data request: Hello, I need these entries ordered by fraction of fluorescent probe displaced, highest reading first. Thanks! Present the labels in the sequence the task asks for.
Data returned: B, D, A, C
(B: 0.048, D: 0.00455, A: 0.00133, C: -0.012)

1: Cn1cc(CC2NC(=O)C(CNC(=O)C3CC3c3ccccc3)NC(=O)C3(CC3)CNC(=O)CCSSCCNC2=O)c2ccccc21 (centres unmarked) [X-Amcp-Dap-Me-Trp + Acid 105]
2: O=C1CCSSCCNC(=O)[C@H](Cc2c[nH]c3ccccc23)NC(=O)[C@H](CNC(=O)c2ccc(Cl)s2)NC(=O)C2(CC2)CN1
Data request: Looking at 1 and 2 , which one comes out lower in fraction of fluorescent probe displaced terms? Could you answer with the label of the item you picked?
Data returned: 1
(1: -0.021, 2: 0.008)

P: O=C(/C=C/c1ccc(OCc2ccccc2)cc1)NC[C@@H]1NC(=O)[C@H]2CCCN(C2)C(=O)CCSSCCNC(=O)[C@H](Cc2cccc3ccccc23)NC1=O
Q: O=C(NC[C@@H]1NC(=O)[C@H]2CCCN(C2)C(=O)CCSSCCNC(=O)[C@H](Cc2c[nH]c3cc(Cl)ccc23)NC1=O)c1ccc(Cl)s1
R: O=C(/C=C/c1ccc2ccccc2c1)NC[C@@H]1NC(=O)[C@H]2CCCN(C2)C(=O)CCSSCCNC(=O)[C@H](Cc2cccc3ccccc23)NC1=O
S: O=C(C=Cc1ccc(Cl)cc1)NCC1NC(=O)C2CN(CCO2)C(=O)CCSSCCNC(=O)C(Cc2c[nH]c3ccccc23)NC1=O (centres unmarked)
T: O=C(/C=C/c1ccc2ccccc2c1)NC[C@H]1NC(=O)[C@H]2CCCN(C2)C(=O)CCSSCCNC(=O)[C@H](Cc2c[nH]c3ccccc23)NC1=O
Data request: Give the ascending ranking of the items by reported fraction of fluorescent probe displaced. Present the labels in the sequence the task asks for.
Data returned: T, P, S, R, Q
